System: A2780 cell
EXPERIMENT NOTES: Cytotox/survival of A2780 cell after 3 days
Assay type: cell-based
DETAILS: Homo sapiens, 72 h; A2780 ovarian carcinoma cell line, 3 days; read-out: Cytotox/survival of A2780 cell after 3 days - pIC50 values (converted)
QUANTITY NAME: IC50 (nM)

• Cn1c(=O)nc2n(C3CCCC3)nc(-c3ccc(-c4cccc(CN5CCOCC5)c4)o3)nc-2c1=O = 107
• CN1CCN(C(=O)COc2ccc(-c3ccc(-c4nc5c(=O)n(C)c(=O)nc-5n(C5CCCC5)n4)o3)cc2)CC1 = 48.1
• Cn1c(=O)nc2n(C3CCNCC3)nc(-c3ccc(-c4cccc(Cl)c4)o3)nc-2c1=O = 10
• CC(C)n1nc(-c2ccc(-c3ccc(CN4CCOCC4)cc3)o2)nc2c(=O)n(C)c(=O)nc1-2 = 79.8
• Cn1c(=O)nc2n(C3CCCC3)nc(-c3ccc(-c4ccc(CNCc5cccnc5)cc4)o3)nc-2c1=O = 70.5
• Cn1c(=O)nc2n(C3CCCC3)nc(-c3ccc(-c4ccc(CNCCO)cc4)o3)nc-2c1=O = 45.1
• Cn1c(=O)nc2n(C3CCCC3)nc(-c3ccc(-c4ccc(CO)cc4)o3)nc-2c1=O = 74
